- targetOfAssay: T1, human CD47, full length, on transfected cells (human, UniProt Q08722 19-323)
- T1 construct: whole, on cells; also called CHOK1-hCD47
- assayText: FACS CHOK1-hCD47; Ab 0.0128 nM
resultType: mean fluorescence intensity
Returns: the value as a bare number; no unit string appended.

Query :: Which mean fluorescence intensity reading was recorded for the binder 4D10B11 (antibody, V domains shown, Murine hybridoma antibody purified on protein G) VH: QVQLQQSGPELVKPGASVKISCKASGYSFTSYYIHWVKQRPGQGLEWIGWIYPGSGNTKYNEKFKGKATLTADTSSSTADMQLSSLTSEDSAVYYCARRGDWYFDVWGTGTTVTVSS VL: DIVMSQSPSSLVVSVGEKVTMNCKSSQSLLFSGNQKSSLAWYQQKPGQSPKLLIYWASTRESGVPDRFTGSGSGTDFTLIISTVKAEDLAVYSCQQYYSYPLTFGAGTKLELK ?
Result :: 113

Query :: Also 95E2D10 (antibody, V domains shown, Murine hybridoma antibody purified on protein G) VH: QIQLQQSGPELVKPGASMKISCKASGYPFTDYYIHWVKQKPGQGLEWIGWIYPGSGNNKYNEKFKGKATLTVDTSPSTVYMQLSSLTSEDTAVYFCARRAGNYFDYWGQGTTLTVSS VL: NIVMTQSPKSMSRSVGERVTLSCRASENVRTYVFWYQQKPGLSPKLLIYGASNRYIGVPDRFTGSGSATDFTLTISSVQAEDLADYHCGQSYSYPLTFGAGTKLELK , if possible.
Result :: 221
